# Target or system: T1, APBA1_1, Q02410
# T1 sequence (Q02410 651-752, limits assumed, looked up): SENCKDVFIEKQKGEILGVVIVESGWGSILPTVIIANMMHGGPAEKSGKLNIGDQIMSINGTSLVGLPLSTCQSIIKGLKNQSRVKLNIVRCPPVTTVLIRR
# Protocol notes: holdup assay
# Design: key: below the threshold = too weak to quantify, mostly under pKd 3.1 to 4
# Condition details: plain residues with an end cap or a label only (N-terminal biotin on a linker: ado-ado)
Value kind: pKd

Reference set (5 entries):
KKTPVSRSHL [SLC22A3, O75751]	below the threshold
DYSNLRETDI [ADRA1D, P25100]	below the threshold
PKSNSSKEYV [CLDN7, O95471]	below the threshold
QLGSPTADLA [SIPA1, Q96FS4]	below the threshold
RSPVATATSC [DUSP5, Q16690]	below the threshold

Query block: For the binder shown here, KPDKQEEFYA [SDC3, O75056] , give the reported pKd.
Result block: below the threshold

Query block: pKd lookup needed for TNSKQGETTV [FZD1, Q9UP38] , thanks.
Result block: below the threshold

Query block: If you can, please state the reported pKd value of NISARRFTLC [FAM167B, Q9BTA0] .
Result block: below the threshold

Query block: Give the measured pKd of IKLETKKTKL [SLC15A2, Q16348] .
Result block: below the threshold

Measured values drawn from paper PMC9482650 for this set.
